Test: protein stability index of a GFP-peptide fusion (yeast GPS) (PSI 1-4); higher = more stable; sorted into four equal gates, so the index is relative within each strain
Conditions: pdr5∆
Label scheme for protein stability index: lower than 2 is False, 2 and above is True.

Solved cases below.
MKQYRDFLGVASTGSGK [PRP28] | True
SQAFDIVAALPISEKGL [RPP1] | True
IAAYIRRHRNPDLQFIV [SMC1] | False
GIEHFDIPPPAIMKPYY [RPO31] | True
VENLTVAQECIAFLKKQ [SMC1] | True
VDRLKIGGSLARIALRH [RPS25A] | True

For the next question, use this sequence.
Q) Reported protein stability index at or above 2? VKFLVYQGVYSMGSILL [YML031W/NDC1]
A) False

Data origin, for the record: the supplement of paper PMC9732359
